Reference source for all entries: PubChem BioAssay (EPA / NIEHS)

- protocol.details: BSK_3C_Vis: BioMAP Diversity Plus: 3C Assay for Morphology Visualization (AID 2283025);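 also: fitted both ways so gain or loss versus DMSO counts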
- condition.info: primary human endothelial cells (HUVEC)
Calls of active or inactive are those of the source. The calls were made as follows: active = hit-call score of the fitted dose curve at least 0.9, where 1 is the maximum; inactive = score below 0.9.
I would appreciate it if you answered using one of these outcomes: YES (active), NO (inactive)

> print(dat)
                                   molecule  class
1  Cc1cn([C@H]2C=C[C@@H](CO)O2)c(=O)[nH]c1=O     NO

GET /call?item= `O=NO` returns the recorded outcome of this test.
NO

GET /call?item= `Cn1cnc2c1c(=O)[nH]c(=O)n2C` returns the recorded outcome of this test.
NO

GET /call?item= Cc1c(C)c2c(c(C)c1O)CCC(C)(COc1ccc(CC3SC(=O)NC3=O)cc1)O2 (stereo not drawn) returns the recorded outcome of this test.
YES

GET /call?item= `CCCCCCCCCC[N+](C)(C)[O-]` returns the recorded outcome of this test.
NO

GET /call?item= CC(=O)CC(c1ccccc1)c1c(O)c2ccccc2oc1=O (stereo not drawn) returns the recorded outcome of this test.
NO
